Property: phosphorylation enrichment; scope: individual sequences
- EXPERIMENTAL TARGET: EPHB2 (UniProt P29323)
- Sequence (P29323 whole entry, looked up): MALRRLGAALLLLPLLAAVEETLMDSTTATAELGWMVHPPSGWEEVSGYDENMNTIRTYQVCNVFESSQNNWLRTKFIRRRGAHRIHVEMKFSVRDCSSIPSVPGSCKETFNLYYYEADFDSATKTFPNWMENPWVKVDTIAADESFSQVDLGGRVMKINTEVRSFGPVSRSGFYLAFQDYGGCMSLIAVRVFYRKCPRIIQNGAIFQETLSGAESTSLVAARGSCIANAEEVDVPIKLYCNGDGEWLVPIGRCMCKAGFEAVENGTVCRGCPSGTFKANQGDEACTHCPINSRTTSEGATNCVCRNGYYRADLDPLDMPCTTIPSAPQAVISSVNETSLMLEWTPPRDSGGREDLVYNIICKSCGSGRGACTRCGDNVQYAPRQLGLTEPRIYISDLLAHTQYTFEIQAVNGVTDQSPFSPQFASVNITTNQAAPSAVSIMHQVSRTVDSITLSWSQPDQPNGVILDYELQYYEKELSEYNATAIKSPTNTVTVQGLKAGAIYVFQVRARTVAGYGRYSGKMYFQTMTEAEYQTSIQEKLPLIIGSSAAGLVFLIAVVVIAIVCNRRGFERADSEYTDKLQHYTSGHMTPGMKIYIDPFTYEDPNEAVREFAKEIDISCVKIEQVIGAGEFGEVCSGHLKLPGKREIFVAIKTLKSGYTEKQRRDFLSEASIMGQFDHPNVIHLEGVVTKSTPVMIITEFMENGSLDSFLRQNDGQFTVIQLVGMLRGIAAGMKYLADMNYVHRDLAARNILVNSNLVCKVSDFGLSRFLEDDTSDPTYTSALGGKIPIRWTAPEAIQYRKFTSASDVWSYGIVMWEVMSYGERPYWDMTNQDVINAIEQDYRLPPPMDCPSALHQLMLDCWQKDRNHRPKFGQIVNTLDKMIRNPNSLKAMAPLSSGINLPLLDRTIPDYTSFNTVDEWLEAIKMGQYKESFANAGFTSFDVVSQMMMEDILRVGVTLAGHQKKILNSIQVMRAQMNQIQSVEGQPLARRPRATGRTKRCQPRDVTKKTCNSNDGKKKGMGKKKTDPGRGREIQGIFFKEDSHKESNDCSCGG
- MEASUREMENT DESCRIPTION: phosphorylation enrichment, bacterial display (enrichment ratio); higher = better substrate or ligand; peptides without Tyr show the background;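 also: 11-residue human phosphosite peptides and single-mutation variants displayed on the E. coli surface, counted by deep sequencing, each peptide's frequency after selection divided by its frequency in the unselected input library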;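 also: frequency after pTyr selection over input frequency; kinase dosed for 20-30% of maximal phosphorylation in three min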
VALUE TYPE: phosphorylation enrichment

{"POLYMER SEQUENCE": "CTTIHYNFLCN [TP53_Y234_M237L_YF]", "RESULT": 0.576}
{"POLYMER SEQUENCE": "LYNQDYPIHCV [GATM_Y227_S231C]", "RESULT": 0.592}
{"POLYMER SEQUENCE": "VAHAVYQAVLS [SMG1_Y549]", "RESULT": 7.85}
{"POLYMER SEQUENCE": "TNFPLYLRSLE [MTM1_Y71_R69P_YF]", "RESULT": 0.51}
{"POLYMER SEQUENCE": "MAFDRYAAICS [OR8H2_Y123_H120Y_YF]", "RESULT": 0.998}
{"POLYMER SEQUENCE": "DTFDPYLDIAL [USP36_Y268_V271I_YF]", "RESULT": 0.589}
{"POLYMER SEQUENCE": "IGRHAYGDQFR [IDH1_Y135_YF]", "RESULT": 0.391}

====

Property: phosphorylation enrichment; scope: individual sequences
- Tested on: AncSZ
- MEASUREMENT DESCRIPTION: phosphorylation enrichment, bacterial display (enrichment ratio); higher = better substrate or ligand; peptides without Tyr show the background

{"POLYMER SEQUENCE": "YPIDHYLGKEM [G6PD_Y202_R198P]", "phosphorylation enrichment": 0.771}
{"POLYMER SEQUENCE": "GIYKDYYRYNF [PLA2G2D_Y85_S80G]", "phosphorylation enrichment": 1.4}
{"POLYMER SEQUENCE": "TAGEPYHDIRF [BAP1_Y223]", "phosphorylation enrichment": 0.821}
{"POLYMER SEQUENCE": "VVHGSYDEIEG [SEC24A_Y263_S261G]", "phosphorylation enrichment": 0.914}
{"POLYMER SEQUENCE": "IGSHAYGDQYR [IDH1_Y135_R132S]", "phosphorylation enrichment": 0.583}
{"POLYMER SEQUENCE": "RGGWAYVLHPT [TRMT61A_Y67_V66A]", "phosphorylation enrichment": 1.34}
{"POLYMER SEQUENCE": "CLNAIYQNNLT [GSR_Y158_R153C]", "phosphorylation enrichment": 0.991}
{"POLYMER SEQUENCE": "FRPPFYHRNCM [HGD_Y334_YF]", "phosphorylation enrichment": 0.921}
{"POLYMER SEQUENCE": "AMCVRYDGVEV [ADAMTSL2_Y594]", "phosphorylation enrichment": 1.19}
{"POLYMER SEQUENCE": "IKNPQYFSDAC [NTRK1_Y496_E492K]", "phosphorylation enrichment": 0.648}
{"POLYMER SEQUENCE": "IIEDPYFGNDF [ACP1_Y132_S137F_YF]", "phosphorylation enrichment": 1.36}
{"POLYMER SEQUENCE": "ANAFIYVVQLP [L1CAM_Y420_YF]", "phosphorylation enrichment": 1.19}
{"POLYMER SEQUENCE": "FYLGAYDRFLP [SLC22A5_Y486_V481F]", "phosphorylation enrichment": 1.37}
{"POLYMER SEQUENCE": "IMWDSYTTNKV [GNB3_Y85_V81M]", "phosphorylation enrichment": 0.945}
{"POLYMER SEQUENCE": "QEGPEYWDGNT [HLA-B_Y83_R86G]", "phosphorylation enrichment": 1.93}
{"POLYMER SEQUENCE": "PELINYHQHFS [BTK_Y361_N365Y_YF]", "phosphorylation enrichment": 0.508}
{"POLYMER SEQUENCE": "YGSGNYNVFGN [HNRNPA2B1_Y300_D302V]", "phosphorylation enrichment": 0.737}
{"POLYMER SEQUENCE": "FFDANYDGKEF [MAPRE2_Y162_YF]", "phosphorylation enrichment": 1.11}
{"POLYMER SEQUENCE": "LDLPGYCPLRE [CCDC116_Y291]", "phosphorylation enrichment": 1.55}
{"POLYMER SEQUENCE": "GFRVCYTPDSR [PTPRF_Y451_Y450C_YF]", "phosphorylation enrichment": 1.26}
{"POLYMER SEQUENCE": "NCLRVYVAGRF [CRB1_Y711_E710V]", "phosphorylation enrichment": 1.71}
{"POLYMER SEQUENCE": "GSSSSCGQHGS [HRNR_Y517_Y517C]", "phosphorylation enrichment": 0.556}
{"POLYMER SEQUENCE": "YQRITYHNWRH [PDE6B_Y556_R552Q]", "phosphorylation enrichment": 0.59}
{"POLYMER SEQUENCE": "PADQAYSWYQH [NDST1_Y711_R709Q]", "phosphorylation enrichment": 1.55}
{"POLYMER SEQUENCE": "DKEKWYPLGTS [PIK3C2G_Y1438_N1442T]", "phosphorylation enrichment": 0.821}
{"POLYMER SEQUENCE": "PLDGEYFTRQI [TP53_Y327_L330R]", "phosphorylation enrichment": 1.09}
{"POLYMER SEQUENCE": "TRSYDYTEGGD [FGF7_Y58_M59T]", "phosphorylation enrichment": 0.898}
{"POLYMER SEQUENCE": "QTEAEYRFIFM [PTPN11_Y511_Q510E_YF]", "phosphorylation enrichment": 1.29}

====

- EXPERIMENTAL TARGET: Fyn (UniProt P06241)
- Sequence (P06241 whole entry, looked up): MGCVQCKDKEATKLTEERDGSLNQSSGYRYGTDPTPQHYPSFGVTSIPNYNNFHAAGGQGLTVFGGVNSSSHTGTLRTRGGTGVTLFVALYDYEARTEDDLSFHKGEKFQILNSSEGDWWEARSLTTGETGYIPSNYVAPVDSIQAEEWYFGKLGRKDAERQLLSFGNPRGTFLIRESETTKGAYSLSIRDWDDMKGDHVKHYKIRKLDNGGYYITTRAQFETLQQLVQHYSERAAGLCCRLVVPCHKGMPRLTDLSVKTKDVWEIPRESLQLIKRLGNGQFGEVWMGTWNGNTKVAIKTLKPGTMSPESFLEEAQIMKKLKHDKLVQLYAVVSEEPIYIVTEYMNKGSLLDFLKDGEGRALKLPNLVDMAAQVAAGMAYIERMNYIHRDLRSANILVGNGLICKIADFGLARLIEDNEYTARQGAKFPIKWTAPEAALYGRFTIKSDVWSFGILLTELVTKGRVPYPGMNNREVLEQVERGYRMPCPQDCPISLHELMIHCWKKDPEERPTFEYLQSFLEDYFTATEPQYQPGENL
- MEASUREMENT DESCRIPTION: phosphorylation enrichment, bacterial display (enrichment ratio); higher = better substrate or ligand; peptides without Tyr show the background
Property: phosphorylation enrichment; scope: individual sequences

{"POLYMER SEQUENCE": "YASALYGQRRS [FGF11_Y162_R163G]", "EXPERIMENTAL TARGET": "Fyn (UniProt P06241)", "phosphorylation enrichment": 0.659}
{"POLYMER SEQUENCE": "RRIHCYRGHLW [VHL_Y112_S111C]", "EXPERIMENTAL TARGET": "Fyn (UniProt P06241)", "phosphorylation enrichment": 0.465}
{"POLYMER SEQUENCE": "DGTESYHTVSS [PLK1_Y462_L463H]", "EXPERIMENTAL TARGET": "Fyn (UniProt P06241)", "phosphorylation enrichment": 0.433}
{"POLYMER SEQUENCE": "TFEFKYPEGSS [TGM4_Y440_YF]", "EXPERIMENTAL TARGET": "Fyn (UniProt P06241)", "phosphorylation enrichment": 0.55}
{"POLYMER SEQUENCE": "REIIAYQPYGK [PRKCG_Y529_P524R]", "EXPERIMENTAL TARGET": "Fyn (UniProt P06241)", "phosphorylation enrichment": 0.625}
{"POLYMER SEQUENCE": "TVLWLYTGTRP [UGT1A1_Y337_R336L]", "EXPERIMENTAL TARGET": "Fyn (UniProt P06241)", "phosphorylation enrichment": 0.68}
{"POLYMER SEQUENCE": "HFVDEYDPTME [KRAS_Y32_I36M]", "EXPERIMENTAL TARGET": "Fyn (UniProt P06241)", "phosphorylation enrichment": 0.614}
{"POLYMER SEQUENCE": "NFYEYYVDDPP [GCHFR_Y48]", "EXPERIMENTAL TARGET": "Fyn (UniProt P06241)", "phosphorylation enrichment": 5.21}
{"POLYMER SEQUENCE": "HQIQSYTCEID [DES_Y331]", "EXPERIMENTAL TARGET": "Fyn (UniProt P06241)", "phosphorylation enrichment": 0.628}
{"POLYMER SEQUENCE": "GGYTCYSDGKK [PROS1_Y266_C267S]", "EXPERIMENTAL TARGET": "Fyn (UniProt P06241)", "phosphorylation enrichment": 0.458}
{"POLYMER SEQUENCE": "FEREQYADRAR [RBM4_Y355_YF]", "EXPERIMENTAL TARGET": "Fyn (UniProt P06241)", "phosphorylation enrichment": 0.484}
{"POLYMER SEQUENCE": "ACEVLYNIVFM [NCF2_Y125_A128V]", "EXPERIMENTAL TARGET": "Fyn (UniProt P06241)", "phosphorylation enrichment": 1.55}
{"POLYMER SEQUENCE": "CTTIHYFFMCN [TP53_Y234_N235Y_YF]", "EXPERIMENTAL TARGET": "Fyn (UniProt P06241)", "phosphorylation enrichment": 0.424}
{"POLYMER SEQUENCE": "SQDSAYHSGIQ [FLG_Y3940]", "EXPERIMENTAL TARGET": "Fyn (UniProt P06241)", "phosphorylation enrichment": 0.421}
